molecular target: L-lactate dehydrogenase (Plasmodium falciparum (isolate CDC / Honduras)) (UniProt Q27743); assay: PfLDH activity inhibition – cell lysate, 3D7 strain, counter-screen for P. falciparum growth inhibition project (AID 2304);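 also: 0% = vehicle and 100% = reference inhibitor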; settings: P. falciparum 3D7 crude extract, LDH APAD/NBT absorbance; at 2 µM; stronger effect = higher value
Sequence (Q27743 whole entry, looked up): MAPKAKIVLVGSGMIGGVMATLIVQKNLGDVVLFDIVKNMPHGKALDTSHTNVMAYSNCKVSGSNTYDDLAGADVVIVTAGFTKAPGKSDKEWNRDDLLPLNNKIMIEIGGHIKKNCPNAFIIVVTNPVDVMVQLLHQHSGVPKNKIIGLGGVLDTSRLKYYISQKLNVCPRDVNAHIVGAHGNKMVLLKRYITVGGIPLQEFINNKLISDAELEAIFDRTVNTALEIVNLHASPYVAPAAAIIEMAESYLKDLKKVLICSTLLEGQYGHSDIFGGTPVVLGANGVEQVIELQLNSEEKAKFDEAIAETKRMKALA
Observed Property: inhibition (%)

> print(dat)
                                    compound                        measurement.target  number
 1  COC(=O)C(C)NCC(=O)c1ccccc1 (stereo not given)  L-lactate dehydrogenase (Plasmodium falciparum (isolate CDC / Honduras)) (UniProt Q27743)       4
 2  CCCOc1ccc(C(=O)Nc2nonc2-c2ccc(OC)c(OC)c2)cc1  L-lactate dehydrogenase (Plasmodium falciparum (isolate CDC / Honduras)) (UniProt Q27743)       5
 3  N#Cc1c(N)n(CCc2ccc(F)cc2)c2nc3ccccc3nc12  L-lactate dehydrogenase (Plasmodium falciparum (isolate CDC / Honduras)) (UniProt Q27743)      -1
 4  CN(C)CCC1CCN(CCS(=O)(=O)c2cccc(Nc3ccc(-c4ccsc4)cn3)c2)CC1  L-lactate dehydrogenase (Plasmodium falciparum (isolate CDC / Honduras)) (UniProt Q27743)       0
 5  Cc1cccc(Cn2c(Cc3ccccc3)nnc2Sc2ccc([N+](=O)[O-])c(C#N)c2)c1  L-lactate dehydrogenase (Plasmodium falciparum (isolate CDC / Honduras)) (UniProt Q27743)      -2
 6  COc1ccc2nccc(NC(=O)OC3CCC(NCc4ccc5c(n4)NC(=O)CS5)CC3)c2c1 (stereo not given)  L-lactate dehydrogenase (Plasmodium falciparum (isolate CDC / Honduras)) (UniProt Q27743)      -6
 7  NC(=O)c1cccc(Nc2nccc(Nc3ccc4[nH]c(-c5ccccc5)cc4c3)n2)c1  L-lactate dehydrogenase (Plasmodium falciparum (isolate CDC / Honduras)) (UniProt Q27743)      -2
 8  O=C(NCC1Cc2cc(Oc3ccccc3)ccc2O1)c1ccc([N+](=O)[O-])o1 (stereo not given)  L-lactate dehydrogenase (Plasmodium falciparum (isolate CDC / Honduras)) (UniProt Q27743)      -3
 9              Nc1nc(N)c2cc(C(F)(F)F)ccc2n1  L-lactate dehydrogenase (Plasmodium falciparum (isolate CDC / Honduras)) (UniProt Q27743)      -3
10  O=C(Nc1ccc(OC2CCN(Cc3ccccc3)C2)c(Cl)c1)c1ccc(F)cc1 (stereo not given)  L-lactate dehydrogenase (Plasmodium falciparum (isolate CDC / Honduras)) (UniProt Q27743)       7
